test system: human PD-L1 (human) (UniProt Q9NZQ7)
Sequence (Q9NZQ7 19-290): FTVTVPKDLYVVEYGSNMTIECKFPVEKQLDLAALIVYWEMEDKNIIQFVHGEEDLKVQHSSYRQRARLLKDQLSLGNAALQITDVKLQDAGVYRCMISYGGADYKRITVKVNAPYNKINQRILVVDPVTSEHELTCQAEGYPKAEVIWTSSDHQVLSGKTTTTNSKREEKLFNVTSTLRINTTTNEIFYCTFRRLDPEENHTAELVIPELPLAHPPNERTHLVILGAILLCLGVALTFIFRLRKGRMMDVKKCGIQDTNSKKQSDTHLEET
method summary: flow cytometry, CHO cells expressing huPD-L1
measured property: MFI at 33.3 nM (MFI)
Please state the figure in MFI; there is no need to write the unit.

The examples below pair each entry with its known result.
variant CD80 IgV-Fc H18Y/Y31H/E35D/M47V/A71G/L85Q (Fc fusion) VIHVTKEVKEVATLSCGYNVSVEELAQTRIHWQKDKKMVLTMMSGDVNIWPEYKNRTIFDITNNLSIVILGLRPSDEGTYECVVQKYEKDAFKREHLAEVTLSVKAD ... 76400
variant CD80 IgV-Fc Q33K/E35D/M47V/K89E/K93R (Fc fusion) VIHVTKEVKEVATLSCGHNVSVEELAQTRIYWKKDKKMVLTMMSGDVNIWPEYKNRTIFDITNNLSIVILALRPSDEGTYECVVLKYEEDAFRREHLAEVTLSVKAD ... 39100
variant CD80 IgV-Fc E35D/M47V/A71G/L85M/L97Q (Fc fusion) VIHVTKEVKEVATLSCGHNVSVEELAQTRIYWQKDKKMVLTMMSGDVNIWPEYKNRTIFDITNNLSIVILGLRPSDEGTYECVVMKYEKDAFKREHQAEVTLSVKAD ... 61700

(Q) Any idea what MFI at 33.3 nM was measured for variant CD80 IgV-Fc E35D/M47V (Fc fusion) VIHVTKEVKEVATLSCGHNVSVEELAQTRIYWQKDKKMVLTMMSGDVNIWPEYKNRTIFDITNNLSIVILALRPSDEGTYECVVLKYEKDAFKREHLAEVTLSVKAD ?
(A) 6800

(Q) Any idea what MFI at 33.3 nM was measured for variant CD80 IgV-Fc A26E/Q33L/E35D/M47L/L85Q (Fc fusion) VIHVTKEVKEVATLSCGHNVSVEELEQTRIYWLKDKKMVLTMMSGDLNIWPEYKNRTIFDITNNLSIVILALRPSDEGTYECVVQKYEKDAFKREHLAEVTLSVKAD ?
(A) 62700
